Data origin: patent US11510990B2

Kindly supply the reported Terminal t1/2 values for the records listed here.
experiment: Pharmacokinetic measurement in C57BL/6 mice, single subcutaneous dose, plasma ELISA; type: in vivo; settings: single subcutaneous dose 30 nmol/kg, plasma
Write your answer as a measured quantity: the number, then the unit.

## Task Look up Terminal t1/2 for this molecule: Compound 9: GLP-1/FGF21 fusion polypeptide SEQ ID NO: 9 conjugated with Moiety A at 231K (conjugate, Moiety A conjugated at K231) HGEGTFTSDVSSYLEEQAAREFIAWLVRGGGGGGGSGGGGSGGGGSGGGGSHPIPDSSPLLQFGGQVRQRYLYTDDAQQTEAHLEIREDGTVGGAADQSPESLLQLRALRPGVIQILGVRTSRFLCQRPDGALYGSLHFDPEACSFRELLLEDGYNVYQSEAHGLPLHLPGQRSPHRDPAPRGPARFLPLPGLPPALPEPPGILAPQPPDVGSSDPLSLVGGSQGRSPSYKS
## Result 3.5 h

## Task Then what about the molecule Compound 4: GLP-1/FGF21 fusion polypeptide SEQ ID NO: 4 conjugated with Moiety A at 51K and 231K (conjugate, Moiety A conjugated at K51 and K231) HGEGTFTSDVSSYLEEQAAREFIAWLVRGGGGGGGSGGGGSGGGGSGGGGKHPIPDSSPLLQFGGQVRQRYLYTDDAQQTEAHLEIREDGTVGGAADQSPESLLQLRALRPGVIQILGVRTSRFLCQRPDGALYGSLHFDPEACSFRELLLEDGYNVYQSEAHGLPLHLPGQRSPHRDPAPRGPARFLPLPGLPPALPEPPGILAPQPPDVGSSDPLSLVGGSQGRSPSYKS ?
## Result 19.7 h

## Task Then what about the molecule Compound 63: GLP-1/FGF21 fusion polypeptide SEQ ID NO: 160 conjugated with Moiety B at 51C and 222C (conjugate, Moiety B conjugated at C51 and C222) HGEGTFTSDVSSYLEEQAAKEFIAWLVKGGGGGGGSGGGGSGGGGSGGGGCHPIPDSSPLLQFGGQVRQRYLYTDDAQQTEAHLEIREDGTVGGAADQSPESLLQLKALKPGVIQILGVKTSRFLCQRPDGALYGSLHFDPEACSFRELLLEDGYNVYQSEAHGLPLHLPGQKSPHRDPAPRGPARFLPLPGLPPALPEPPGILAPQPPDVGSSDPLSLVGCSQGRSPSYES ?
## Result 16.7 h

## Task Then what about the molecule Compound 19: GLP-1/FGF21 fusion polypeptide SEQ ID NO: 19 conjugated with Moiety A at 51K and 222K (conjugate, Moiety A conjugated at K51 and K222) HGEGTFTSDVSSYLEEQAAREFIAWLVRGGGGGGGSGGGGSGGGGSGGGGKHPIPDSSPLLQFGGQVRQRYLYTDDAQQTEAHLEIREDGTVGGAADQSPESLLQLRALRPGVIQILGVRTSRFLCQRPDGALYGSLHFDPEACSFRELLLEDGYNVYQSEAHGLPLHLPGQRSPHRDPAPRGPARFLPLPGLPPALPEPPGILAPQPPDVGSSDPLSLVGKSQGRSPSYES ?
## Result 10.8 h

## Task Then what about the molecule Compound 10: GLP-1/FGF21 fusion polypeptide SEQ ID NO: 10 conjugated with Moiety A at 222K (conjugate, Moiety A conjugated at K222) HGEGTFTSDVSSYLEEQAAREFIAWLVRGGGGGGGSGGGGSGGGGSGGGGSHPIPDSSPLLQFGGQVRQRYLYTDDAQQTEAHLEIREDGTVGGAADQSPESLLQLRALRPGVIQILGVRTSRFLCQRPDGALYGSLHFDPEACSFRELLLEDGYNVYQSEAHGLPLHLPGQRSPHRDPAPRGPARFLPLPGLPPALPEPPGILAPQPPDVGSSDPLSLVGKSQGRSPSYES ?
## Result 1.9 h
